Target: Cytochrome P450 2C9 (Homo sapiens) (UniProt P11712)
Sequence (P11712 whole entry, looked up): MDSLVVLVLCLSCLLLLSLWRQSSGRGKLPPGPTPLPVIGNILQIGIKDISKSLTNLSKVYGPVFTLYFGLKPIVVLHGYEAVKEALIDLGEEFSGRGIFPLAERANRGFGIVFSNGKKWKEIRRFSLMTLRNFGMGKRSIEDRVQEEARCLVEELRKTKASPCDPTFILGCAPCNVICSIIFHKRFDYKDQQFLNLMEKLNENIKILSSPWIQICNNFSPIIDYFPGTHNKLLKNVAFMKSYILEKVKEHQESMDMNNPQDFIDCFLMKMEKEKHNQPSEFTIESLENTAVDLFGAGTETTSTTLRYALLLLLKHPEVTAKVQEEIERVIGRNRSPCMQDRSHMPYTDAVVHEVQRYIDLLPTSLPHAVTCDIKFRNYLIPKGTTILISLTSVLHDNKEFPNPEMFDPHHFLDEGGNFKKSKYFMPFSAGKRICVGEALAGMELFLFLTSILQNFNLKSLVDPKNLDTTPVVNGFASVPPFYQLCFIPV
Test: blockers of cytochrome P450 2C9 activity – biochemical, luminescence, ADME assay, primary screen (AID 777)
Details: CYP2C9 Supersomes, luciferin-H conversion, at 5 µM
In all, about 96,000 compounds went through this assay and about 19,000 (20%) were called active.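 The calls were made as follows: active = blocking of liver enzyme CYP2C9 beyond about 50% at 5 µM (limit read from the data); inactive = the rest.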 The list is a sample of the results.
# valid calls are active, inactive; nothing else

The following molecules have reported results that may help.
molecule=COCCn1c(CN(Cc2ccccc2)Cc2ccccc2)nc2c1c(=O)n(C)c(=O)n2C qualitative_label=active
molecule=Cc1ccc2nc(S(=O)(=O)O)[nH]c2c1 qualitative_label=inactive
molecule=Cn1c(=O)c2c(nc(OCc3cccnc3)n2Cc2ccccc2)n(C)c1=O qualitative_label=active
molecule="N=c1n(Cc2ccc(Cl)cc2)c2ccccc2n1CC(O)c1ccco1 (stereo unspecified)" qualitative_label=inactive
molecule=C[C@H](NC(=O)NCCc1ccccc1)C(=O)O qualitative_label=inactive

**Q:** Kindly provide the recorded test outcome for the following molecule: "COc1ccc(C(F)(F)F)cc1N/C=C\c1nnnn1-c1ccc(C)cc1"
**A:** inactive

**Q:** Kindly provide the recorded test outcome for the following molecule: "O=C(CN1CCOCC1)N1CCCc2c1c(=O)oc1ccc(OCc3ccccc3)cc21"
**A:** active

**Q:** Kindly provide the recorded test outcome for the following molecule: COC(=O)C1=C(C)Nc2ncnn2C1c1cccnc1 (stereo unspecified)
**A:** inactive

**Q:** Kindly provide the recorded test outcome for the following molecule: "O=c1c([N+](=O)[O-])cc(C(F)(F)F)cn1Cc1cccc(Cl)c1"
**A:** inactive

**Q:** Kindly provide the recorded test outcome for the following molecule: "CCCn1c(C)cc(C(=O)COC(=O)c2c(C)nn(-c3ccccc3)c2C)c1C"
**A:** inactive

**Q:** Kindly provide the recorded test outcome for the following molecule: "Cc1ccsc1-c1nc(CSCC(=O)NCCN2CCCC2)c(C)o1"
**A:** inactive
